Experiment: Cmax in rat at 12 mg/kg, po by HPLC-MS analysis
Assay type: ADME, organism-based
Design: dose 12 mg/kg, route oral
Details: in vivo
MEASUREMENT TYPE: Cmax (ng/mL)
Numbers only, in ng/mL.

Ask | Reported Cmax for Cc1cc(=O)oc2c(Cl)c(OCCCCN3CCC(c4noc5cc(F)ccc45)CC3)ccc12 : what is it?
Reply | 72.1

* * *

Molecular target: 5-hydroxytryptamine receptor 2A (Rattus norvegicus, UniProt P14842)
Sequence (P14842 whole entry): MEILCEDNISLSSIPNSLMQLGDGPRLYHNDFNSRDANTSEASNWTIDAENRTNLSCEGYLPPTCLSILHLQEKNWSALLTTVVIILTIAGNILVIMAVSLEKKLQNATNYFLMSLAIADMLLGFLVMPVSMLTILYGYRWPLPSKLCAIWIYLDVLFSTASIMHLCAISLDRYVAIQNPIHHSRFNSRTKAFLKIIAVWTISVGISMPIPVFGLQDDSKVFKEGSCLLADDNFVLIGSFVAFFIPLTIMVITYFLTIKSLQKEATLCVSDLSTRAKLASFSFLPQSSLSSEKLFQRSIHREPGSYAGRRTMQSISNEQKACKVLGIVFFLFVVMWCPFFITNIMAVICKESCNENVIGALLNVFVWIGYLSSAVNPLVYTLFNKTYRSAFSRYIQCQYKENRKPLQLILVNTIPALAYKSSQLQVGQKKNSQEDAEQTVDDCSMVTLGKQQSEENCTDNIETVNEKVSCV
Assignment: determine reported pKi for the given compounds.
Numbers only, as −log10 of the molar value.

Solved entries:
COc1ccccc1N1CCN(CCCCOc2ccc3ccc(=O)oc3c2)CC1 ... 5.77
Cc1cc(=O)oc2c(Cl)c(OCCCCN3CCC(c4noc5cc(F)ccc45)CC3)ccc12 ... 9.52

Batch request: pKi for each of the following compounds.
1. COc1ccccc1N1CCN(CCCCOc2ccc3c(C)cc(=O)oc3c2)CC1
2. Cc1cc(=O)oc2cc(OCCCCN3CCN(c4ccccn4)CC3)ccc12
3. Cc1c(C)c2ccc(OCCCCN3CCC(c4noc5cc(F)ccc45)CC3)cc2oc1=O
4. Cc1cc(=O)oc2cc(OCCCCN3CCN(c4cccc(Cl)c4Cl)CC3)ccc12

Reply |
8.10
6.05
9.52
7.00
